Entries and their measured Ki follow.
tgt: Casein kinase II subunit alpha' (Homo sapiens, UniProt P19784)
Sequence (P19784 whole entry): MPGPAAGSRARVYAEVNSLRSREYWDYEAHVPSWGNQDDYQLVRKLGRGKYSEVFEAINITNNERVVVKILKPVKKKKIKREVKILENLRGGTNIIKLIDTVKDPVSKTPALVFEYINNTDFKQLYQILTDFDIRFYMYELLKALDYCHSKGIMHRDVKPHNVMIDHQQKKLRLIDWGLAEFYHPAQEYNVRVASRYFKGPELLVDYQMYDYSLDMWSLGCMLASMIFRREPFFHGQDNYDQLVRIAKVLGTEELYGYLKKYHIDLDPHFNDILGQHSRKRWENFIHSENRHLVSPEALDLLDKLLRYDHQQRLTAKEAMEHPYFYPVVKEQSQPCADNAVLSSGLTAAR
assay.remarks: Inhibition of human CK2 alpha' catalytic subunit expressed in Escherichia coli […] (DE3) assessed as [33P]gamma-ATP incorporation into RRRADDSDDDDD substrate after 15 mins by scintillation counting
Just the number plus its unit, please.

What Ki value was documented for this compound, "O=C(O)CCCSc1nc2c(Br)c(Br)c(Br)c(Br)c2[nH]1" ?
44 nM

Now consider a different compound.
What Ki value was documented for this compound, "CN(C)c1nc2c(Br)c(Br)c(Br)c(Br)c2n1CCCC(=O)O" ?
93 nM

---

tgt: Casein kinase II subunit alpha' (Homo sapiens, UniProt P19784)
assay.remarks: Inhibition of human CK2 alpha' catalytic subunit expressed in Escherichia coli BL21 (DE3) assessed as [33P]gamma-ATP incorporation into P2B substrate after 15 mins by scintillation counting
Simple rule here: Ki less than 0.08 µM is T, otherwise F.

Answered examples (3):
Does the reported Ki of the following molecule sit strictly below 0.08 µM? "Ic1c(I)c(I)c2[nH]cnc2c1I"
T

Does the reported Ki of the following molecule sit strictly below 0.08 µM? "CN(C)c1nc2c(Br)c(Br)c(Br)c(Br)c2n1C"
F

Does the reported Ki of the following molecule sit strictly below 0.08 µM? "Cn1c(SCC(=O)O)nc2c(Br)c(Br)c(Br)c(Br)c21"
F

Query molecule follows.
Does the reported Ki of the following molecule sit strictly below 0.08 µM? "O=C(O)Cn1cnc2c(Br)c(Br)c(Br)c(Br)c21"
F

---

tgt: Casein kinase II subunit alpha (Homo sapiens)
assay.remarks: Inhibition of human CK2 alpha catalytic subunit expressed in Escherichia coli BL21 (DE3) assessed as [32P]gamma-ATP incorporation into RRRADDSDDDDD substrate after 15 mins by scintillation counting
Entries and their measured pKi follow.
Field pKi (float): negative decimal logarithm of the concentration in molar.

What pKi value was documented for this compound, "O=C(O)CCSc1nc2c(Br)c(Br)c(Br)c(Br)c2[nH]1" ?
6.76

What pKi value was documented for this compound, "O=C(O)CCCn1cnc2c(Br)c(Br)c(Br)c(Br)c21" ?
6.43

What pKi value was documented for this compound, "O=C(O)CCCSc1nc2c(Br)c(Br)c(Br)c(Br)c2[nH]1" ?
6.68

What pKi value was documented for this compound, "O=C(O)Cn1cnc2c(Br)c(Br)c(Br)c(Br)c21" ?
6.17

---

Entries and their measured Ki follow.
tgt: Casein kinase II subunit alpha' (Homo sapiens, UniProt P19784)
assay.remarks: Inhibition of human CK2 alpha' catalytic subunit expressed in Escherichia coli […] (DE3) assessed as [33P]gamma-ATP incorporation into RRRADDSDDDDD substrate after 15 mins by scintillation counting
The figure you give is taken to be in nM; do not add the unit.

Before answering, review these 2 worked examples.
What Ki value was documented for this molecule, "O=C(O)Cn1cnc2c(I)c(I)c(I)c(I)c21" ?
324

What Ki value was documented for this molecule, "Brc1c(Br)c(Br)c2[nH]cnc2c1Br" ?
343

Now consider a different molecule.
What Ki value was documented for this molecule, "CN(C)c1nc2c(Br)c(Br)c(Br)c(Br)c2n1C" ?
35

---

tgt: Casein kinase II subunit alpha (Homo sapiens, UniProt P68400)
Sequence (P68400 whole entry): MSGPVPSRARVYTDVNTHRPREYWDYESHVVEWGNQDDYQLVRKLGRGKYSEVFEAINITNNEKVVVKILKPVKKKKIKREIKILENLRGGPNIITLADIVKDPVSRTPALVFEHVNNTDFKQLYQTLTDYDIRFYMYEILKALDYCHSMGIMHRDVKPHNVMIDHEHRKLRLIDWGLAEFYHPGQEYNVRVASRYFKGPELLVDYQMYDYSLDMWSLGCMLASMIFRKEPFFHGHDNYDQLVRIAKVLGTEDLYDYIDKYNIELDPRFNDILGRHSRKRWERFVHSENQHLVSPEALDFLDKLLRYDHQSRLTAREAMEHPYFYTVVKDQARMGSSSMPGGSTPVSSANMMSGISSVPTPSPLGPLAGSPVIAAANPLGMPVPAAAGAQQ
assay.remarks: Inhibition of human CK2 alpha catalytic subunit expressed in Escherichia coli BL21 (DE3) assessed as [32P]gamma-ATP incorporation into RRRADDSDDDDD substrate after 15 mins by scintillation counting
measured.metric: pKi
Field pKi (float): negative decimal logarithm of the concentration in molar.

What pKi value was documented for this compound, "O=C(O)Cn1cnc2c(I)c(I)c(I)c(I)c21" ?
6.58

What pKi value was documented for this compound, "Cn1c(SCCC(=O)O)nc2c(Br)c(Br)c(Br)c(Br)c21" ?
6.86

Now consider a different compound.
What pKi value was documented for this compound, "Ic1c(I)c(I)c2[nH]cnc2c1I" ?
7.37

---

tgt: Casein kinase II subunit alpha' (Homo sapiens, UniProt P19784)
assay.remarks: Inhibition of human CK2 alpha' catalytic subunit expressed in Escherichia coli BL21 (DE3) assessed as [33P]gamma-ATP incorporation into P2B substrate after 15 mins by scintillation counting
Simple rule here: Ki less than 70 nM is Fulfilled, otherwise Not fulfilled.

Answered examples (4):
Does the reported Ki of the following molecule sit strictly below 70 nM? "CN(C)c1nc2c(Br)c(Br)c(Br)c(Br)c2n1CC(=O)O"
Fulfilled

Does the reported Ki of the following molecule sit strictly below 70 nM? "O=C(O)CSc1nc2c(Br)c(Br)c(Br)c(Br)c2[nH]1"
Fulfilled

Does the reported Ki of the following molecule sit strictly below 70 nM? "O=C(O)CCCn1cnc2c(Br)c(Br)c(Br)c(Br)c21"
Not fulfilled

Does the reported Ki of the following molecule sit strictly below 70 nM? "Brc1c(Br)c(Br)c2[nH]cnc2c1Br"
Not fulfilled

Continuing:
Does the reported Ki of the following molecule sit strictly below 70 nM? "O=C(O)CCCSc1nc2c(Br)c(Br)c(Br)c(Br)c2[nH]1"
Not fulfilled

Does the reported Ki of the following molecule sit strictly below 70 nM? "O=C(O)CCSc1nc2c(Br)c(Br)c(Br)c(Br)c2[nH]1"
Fulfilled

---

tgt: Casein kinase II subunit alpha (Homo sapiens)
assay.remarks: Inhibition of human CK2 alpha catalytic subunit expressed in Escherichia coli BL21 (DE3) assessed as [32P]gamma-ATP incorporation into P2B substrate after 15 mins by scintillation counting
measured.metric: log10(Ki) (log10 of the value in nM)
// stored as log10 of Ki expressed in nM

What log10(Ki) value was documented for this compound, "CN(C)c1nc2c(Br)c(Br)c(Br)c(Br)c2n1C" ?
2.33

What log10(Ki) value was documented for this compound, "O=C(O)Cn1cnc2c(Br)c(Br)c(Br)c(Br)c21" ?
2.90

Continuing:
What log10(Ki) value was documented for this compound, "O=C(O)CSc1nc2c(Br)c(Br)c(Br)c(Br)c2[nH]1" ?
2.03

What log10(Ki) value was documented for this compound, "Cn1c(SCCC(=O)O)nc2c(Br)c(Br)c(Br)c(Br)c21" ?
2.05

What log10(Ki) value was documented for this compound, "Cn1c(SCC(=O)O)nc2c(Br)c(Br)c(Br)c(Br)c21" ?
2.16

What log10(Ki) value was documented for this compound, "CN(C)c1nc2c(Br)c(Br)c(Br)c(Br)c2n1CCCC(=O)O" ?
2.93

---

tgt: Casein kinase II subunit alpha' (Homo sapiens)
assay.remarks: Inhibition of human CK2 alpha' catalytic subunit expressed in Escherichia coli […] (DE3) assessed as [33P]gamma-ATP incorporation into RRRADDSDDDDD substrate after 15 mins by scintillation counting
measured.metric: pKi
Field pKi (float): negative decimal logarithm of the concentration in molar.

What pKi value was documented for this molecule, "Ic1c(I)c(I)c2[nH]cnc2c1I" ?
7.68

What pKi value was documented for this molecule, "Cn1c(SCCCC(=O)O)nc2c(Br)c(Br)c(Br)c(Br)c21" ?
6.11

What pKi value was documented for this molecule, "Cn1c(SCC(=O)O)nc2c(Br)c(Br)c(Br)c(Br)c21" ?
7.62

What pKi value was documented for this molecule, "CN(C)c1nc2c(Br)c(Br)c(Br)c(Br)c2n1CC(=O)O" ?
7.68

What pKi value was documented for this molecule, "O=C(O)Cn1cnc2c(Br)c(Br)c(Br)c(Br)c21" ?
6.47

What pKi value was documented for this molecule, "O=C(O)CCSc1nc2c(Br)c(Br)c(Br)c(Br)c2[nH]1" ?
7.51

---

tgt: Casein kinase II subunit alpha' (Homo sapiens)
assay.remarks: Inhibition of human CK2 alpha' catalytic subunit expressed in Escherichia coli BL21 (DE3) assessed as [33P]gamma-ATP incorporation into P2B substrate after 15 mins by scintillation counting
measured.metric: Ki (nM)
The figure you give is taken to be in nM; do not add the unit.

Before answering, review these 2 worked examples.
What Ki value was documented for this compound, "O=C(O)Cn1cnc2c(I)c(I)c(I)c(I)c21" ?
62

What Ki value was documented for this compound, "Cn1c(SCCCC(=O)O)nc2c(Br)c(Br)c(Br)c(Br)c21" ?
83

Continuing:
What Ki value was documented for this compound, "Cn1c(SCCC(=O)O)nc2c(Br)c(Br)c(Br)c(Br)c21" ?
100

What Ki value was documented for this compound, "CN(C)c1nc2c(Br)c(Br)c(Br)c(Br)c2n1CCCC(=O)O" ?
139

What Ki value was documented for this compound, "O=C(O)CSc1nc2c(I)c(I)c(I)c(I)c2[nH]1" ?
78

---

tgt: Casein kinase II subunit alpha (Homo sapiens)
assay.remarks: Inhibition of human CK2 alpha catalytic subunit expressed in Escherichia coli BL21 (DE3) assessed as [32P]gamma-ATP incorporation into RRRADDSDDDDD substrate after 15 mins by scintillation counting
Simple rule here: Ki less than 200 nM is TRUE, otherwise FALSE.

Answered examples (6):
Does the reported Ki of the following compound sit strictly below 200 nM? "CN(C)c1nc2c(Br)c(Br)c(Br)c(Br)c2n1CCCC(=O)O"
FALSE

Does the reported Ki of the following compound sit strictly below 200 nM? "Cn1c(SCCCC(=O)O)nc2c(Br)c(Br)c(Br)c(Br)c21"
FALSE

Does the reported Ki of the following compound sit strictly below 200 nM? "CN(C)c1nc2c(Br)c(Br)c(Br)c(Br)c2n1CC(=O)O"
TRUE

Does the reported Ki of the following compound sit strictly below 200 nM? "CN(C)c1nc2c(Br)c(Br)c(Br)c(Br)c2n1C"
TRUE

Does the reported Ki of the following compound sit strictly below 200 nM? "Cn1c(SCC(=O)O)nc2c(Br)c(Br)c(Br)c(Br)c21"
TRUE

Does the reported Ki of the following compound sit strictly below 200 nM? "O=C(O)CSc1nc2c(I)c(I)c(I)c(I)c2[nH]1"
TRUE

Continuing:
Does the reported Ki of the following compound sit strictly below 200 nM? "O=C(O)CSc1nc2c(Br)c(Br)c(Br)c(Br)c2[nH]1"
TRUE
